Biological target: HLA-A*02:06
Experiment: IEDB peptide-MHC binding, purified MHC/competitive/radioactivity; filed as Kd, often an IC50 or EC50 that approximates it; bounds were set here for any values at or beyond the usual limits of such assays
Conditions: source organism: Mammarenavirus guanaritoense
VALUE_KIND: Kd (nM)
# value in nM; strip the unit string

Q) Note down Kd recorded for `TLVDLCFWS`
A) 134

* * *

Target: HLA-A*31:01
Experiment: IEDB peptide-MHC binding, purified MHC/direct/fluorescence; filed as Kd, often an IC50 or EC50 that approximates it; bounds were set here for any values at or beyond the usual limits of such assays
Settings: source organism: Coxiella burnetii
VALUE_KIND: Kd

Q) Note down Kd recorded for `WAPEGDIRL`
A) ≥ 20 µM

* * *

Target: HLA-B*39:01
Assay: IEDB peptide-MHC binding, purified MHC/competitive/fluorescence; filed as Kd, often an IC50 or EC50 that approximates it; bounds were set here for any values at or beyond the usual limits of such assays
Settings: source organism: Orthohantavirus andesense
pKd: −log10 of the molar value.
VALUE_KIND: pKd

Q) Note down pKd recorded for `VFTSRIQVI`
A) ≤ 4.70

* * *

Molecular target: HLA-B*35:01
Assay: IEDB peptide-MHC binding, purified MHC/competitive/fluorescence; filed as Kd, often an IC50 or EC50 that approximates it; bounds were set here for any values at or beyond the usual limits of such assays
Conditions: source organism: Yersinia pestis Antiqua
VALUE_KIND: pKd
In plain terms, pKd is the concentration in mol/L turned into minus its base-10 logarithm.

SEQ_TEXT | ASSAY_TARGET | pKd
MPARLWLCL | HLA-B*35:01 | 9.10

Attention now shifts to the item below.
Q) Note down pKd recorded for `FASSRMSTY`
A) 9.70

* * *

Target: HLA-B*15:42
Test: IEDB peptide-MHC binding, purified MHC/competitive/fluorescence; filed as Kd, often an IC50 or EC50 that approximates it; bounds were set here for any values at or beyond the usual limits of such assays
Conditions: source organism: Mycobacterium tuberculosis variant bovis BCG str. Pasteur 1173P2
VALUE_KIND: pKd
In plain terms, pKd is the concentration in mol/L turned into minus its base-10 logarithm.

Q) Note down pKd recorded for `FMFDYIPPV`
A) 5.41

* * *

Target: HLA-B*15:01
Test: IEDB peptide-MHC binding, purified MHC/direct/fluorescence; filed as Kd, often an IC50 or EC50 that approximates it; bounds were set here for any values at or beyond the usual limits of such assays
Conditions: source organism: Vibrio parahaemolyticus
VALUE_KIND: Kd

Q) Note down Kd recorded for `EIPGSPGSY`
A) ≥ 20 µM

* * *

Molecular target: HLA-B*27:05
Assay: IEDB peptide-MHC binding, purified MHC/direct/fluorescence; filed as Kd, often an IC50 or EC50 that approximates it; bounds were set here for any values at or beyond the usual limits of such assays
Details: source organism: Salmonella enterica subsp. enterica serovar Typhi
pKd: −log10 of the molar value.
VALUE_KIND: pKd

Q) Note down pKd recorded for `REILFHNTM`
A) ≤ 4.70

* * *

Target: HLA-A*30:01
Assay: IEDB peptide-MHC binding, purified MHC/competitive/fluorescence; filed as Kd, often an IC50 or EC50 that approximates it; bounds were set here for any values at or beyond the usual limits of such assays
Details: source organism: Human immunodeficiency virus 1
VALUE_KIND: Kd (nM)
# value in nM; strip the unit string

Q) Note down Kd recorded for `EKLKSLYNTI`
A) 72
